# System: OVCAR-8 ovarian
# Assay notes: NCI tumour cell line growth inhibition, 48 h
Property name: TGI

See these solved cases before continuing.
COC(=O)C1Cc2c([nH]c3ccccc23)C(c2ccccc2O)N1Cc1ccccc1 (configuration not stated)
> 46.4 µM
COC(=O)[C@H]1N[C@@H](C(=O)OC)C23CCC[C@H]2CC[C@]1(C(OC)OC)C3
> 100 µM
N#C/C(=C1/c2cc([N+](=O)[O-])ccc2-c2c1cc([N+](=O)[O-])cc2[N+](=O)[O-])N1CCCCC1
> 100 µM
O=C(NCCCCCCO)c1cccc2cc3ccccc3nc12
> 100 µM
Clc1ccc2c(c1)[nH]c1c2nc2sccn21
> 100 µM
Cc1ccc(/C=C2/NC(=S)SC2=O)cc1
> 100 µM

Ask: Hi! What's the reported TGI for Cc1nn(CNc2ccccc2C(F)(F)F)c(=S)n1/N=C/c1ccc(F)cc1 on OVCAR-8 ovarian?
Reply: > 100 µM

###

TGI values, listed per item
# System: HT29 colon
# Assay notes: NCI tumour cell line growth inhibition, 48 h

See these solved cases before continuing.
COc1cc2c(c(OC)c1)C(=O)O[C@H](C)CCCC/C=C/C2
> 71.8 µM
O=NN1CCCS1(=O)=O
> 100 µM

Turning now to a further compound:
Ask: Reported TGI for O=c1cc(-c2ccccn2)[nH]c2cc(F)ccc12 : what is it?
Reply: > 100 µM

###

# Tested on: A498 renal
# Assay notes: NCI tumour cell line growth inhibition, 48 h
TGI values, listed per item

Ask: Reported TGI for Cc1nc2c(n1-c1ccccc1)C(=O)c1ccccc1C2=O : what is it?
Reply: > 100 µM

Ask: Quick one: Clc1ccc(-c2c(C3=NCCN3)nnn2-c2ccccc2)cc1
Reply: > 100 µM

Ask: Quick one: O=[N+]([O-])c1cc(F)ccc1Sc1ccccc1
Reply: > 10 µM

Ask: Quick one: Cc1c(C#N)c(=N)oc2ccccc12
Reply: > 100 µM

###

log10 of TGI values, listed per item
# Tested on: UACC-257 melanoma
# Assay notes: NCI tumour cell line growth inhibition, 48 h
Please note: log10 values; quantity TGI; unit µM.

See these solved cases before continuing.
CC12CC=CCC1CCC1C2CCC2(C)C(c3ccc(=O)oc3)CCC12O (configuration not stated)
-0.11
C[C@]12CC[C@H]3[C@@H](CCC4=C(Br)C(=O)C=C[C@@]43O)[C@@H]1CCC2=O
1.80
COc1ccccc1NC(=S)N/N=C/c1ccccn1
-0.38
COc1ccc2ccccc2c1CN1CCOCCOCCN(Cc2c(OC)ccc3ccccc23)CCOCCOCC1
1.82
COc1cc(/C=C/c2ccc(OC)c(OC)c2OC)cc(OC)c1OC
1.72

Ask: Reported log10 of TGI for COC(=O)C(CC(=O)c1c[nH]c2ccccc12)c1c[nH]c2ccccc12 (configuration not stated) : what is it?
Reply: 1.48

Ask: Quick one: C[C@]12CC[C@@H](OC(=O)N(CCCl)N=O)C[C@@H]1CC[C@@H]1[C@@H]2CC[C@]2(C)C(=O)CC[C@@H]12
Reply: 1.38

###

# Test system: RXF 393 renal
# Assay notes: NCI tumour cell line growth inhibition, 48 h
Property name: TGI

See these solved cases before continuing.
CC[C@]1(O)C[C@@H]2CN(CCc3c([nH]c4ccccc34)[C@@](C(=O)OC)(c3cc4c(cc3OC)N(C)[C@H]3[C@@](O)(C(N)=O)[C@H](O)[C@]5(CC)[C@@H]6C[C@@H]6CN6CC[C@]43[C@@H]65)C2)C1
> 33.3 µM
CN1c2ccccc2S(=O)(=O)n2c(CCc3ccccc3)nnc21
> 100 µM
COc1cc(C)cc2c(-c3c(O)cc(O)c4c3C[C@H](C)N[C@H]4C)cc(-c3cc(-c4c(O)cc(O)c5c4C[C@H](C)N[C@H]5C)c4cc(C)cc(OC)c4c3O)c(O)c12
> 100 µM
COC1(OC)C=CC(=O)C=C1
4.51 µM
C=CCc1ccccc1C1CC2(C(=O)OC)OC1C(C(=O)OC)=C2C(=O)OC (stereo unspecified)
> 10 µM
Cc1c(C(=O)CC(=O)C(=O)Nc2cc(Cl)ccc2Cl)[n+](=O)c2ccccc2n1[O-]
> 100 µM
N#Cc1c(N2CCN(c3ccc([N+](=O)[O-])cc3)CC2)[n+](=O)c2ccc(-c3ccc([N+](=O)[O-])cc3)cc2n1[O-]
> 100 µM
CN(C)CCCc1c2ccccc2nc2ccc(Cl)cc12
28.8 µM
CN1C(=O)C2C=CC1C1CCC2N(C)C1=O (stereo unspecified)
> 100 µM
ClCc1ccc(C2OCCO2)cc1
> 62 µM

Ask: Reported TGI for CC[C@H](Nc1nc(N)nc(C2CC2)c1C#N)c1nc2cccc(NCc3ccc(C(=O)NO)cc3)c2c(=O)n1-c1ccccc1 : what is it?
Reply: 1.99 µM

Ask: Quick one: O=[N+]([O-])c1cc(F)ccc1Sc1ccccc1
Reply: > 10 µM

Ask: Quick one: COC(=O)/C=C1\C(=O)C=C2[C@@H]3C[C@H]4C[C@H](CC[C@@]4(C)N21)C3(C)NC(C)=O (stereo partly specified)
Reply: > 39.9 µM

###

# Test system: SN12C renal
# Assay notes: NCI tumour cell line growth inhibition, 48 h
TGI values, listed per item

COC(=O)c1ccc2c(c1)C(=O)c1c-2n(CCCN)c(=O)c2cc(OC)c(OC)cc12
31.4 µM

Ask: Reported TGI for O=C(O)CCSC1=NCCN1 : what is it?
Reply: > 100 µM

Ask: Quick one: CC(=O)c1cccc(-c2cccc(-c3ccn(CCN4CCOCC4)n3)c2)c1
Reply: > 20 µM

Ask: Quick one: COC(=O)[C@]1(C)CCC[C@@]2(C)[C@@H]3C[C@@H]4[C@H]5C[C@@]3(CC[C@@H]21)C[C@@]45C
Reply: 33.5 µM

Ask: Quick one: COC1(OC)C=CC(=O)C=C1
Reply: 30.8 µM

Ask: Quick one: Cn1ccc2c(c1=O)C(=O)OC2(C)C
Reply: > 100 µM

Ask: Quick one: COc1cc(/C=C2\CC3C4CC=C5C[C@@H](O)CC[C@]5(C)C4CC[C@]3(C)C2=O)ccc1OCCCn1ccnc1 (stereo partly specified)
Reply: 33.7 µM

Ask: Quick one: O=P(O)(O)C=C=C1CCCCC1
Reply: > 100 µM

Ask: Quick one: C[C@]12CC[C@H]3[C@@H](CCC4=C(Br)C(=O)C=C[C@@]43O)[C@@H]1CCC2=O
Reply: > 100 µM

###

# System: NCI-H460 lung
# Assay notes: NCI tumour cell line growth inhibition, 48 h
TGI values, listed per item

See these solved cases before continuing.
COc1nc(C)cc2c(=O)n(-c3ccccc3)n(CC(O)CN3CCN(c4ccc(Cl)cc4)CC3)c(=O)c12 (centres undefined)
> 50 µM
Nc1ccc(C(=O)CC2(O)C(=O)Nc3c(Cl)cc(Cl)cc32)cc1 (centres undefined)
> 100 µM
Cc1ccc2sc3ccc(N)cc3c(=O)c2c1
> 100 µM
CC1(O)CCC2(C)C(=O)C1(C)CCC21OCCO1 (centres undefined)
> 100 µM
Cc1nc2cccc(F)c2c(=O)n1-c1nnc(C(F)(F)F)s1
> 10 µM

Ask: Reported TGI for Clc1ccc2c(c1)[nH]c1c2nc2sccn21 : what is it?
Reply: > 100 µM

Ask: Quick one: COc1cc(CNC(=S)CCCCCCCCCCC(C)C)ccc1O
Reply: > 100 µM

Ask: Quick one: CS(=O)(=O)[O-].CS(=O)(=O)[O-].NC1CCCCC1N.[Pt+4] (centres undefined)
Reply: > 100 µM

Ask: Quick one: N#C/C(C(=O)Nc1ccccc1)=C(/N)N1CCCCC1
Reply: > 100 µM

###

# Tested on: UACC-257 melanoma
# Assay notes: NCI tumour cell line growth inhibition, 48 h
TGI values, listed per item

S=P(N1CCCC1)(N1CC1)N1CC1
> 100 µM

Ask: Reported TGI for COc1cccc(NC(=O)CC(=O)N2N=C(C)C(N=Nc3ccc(C(=O)O)cc3)C2=O)c1 (stereo not given) : what is it?
Reply: > 100 µM

###

# System: RXF 393 renal
# Assay notes: NCI tumour cell line growth inhibition, 48 h
Property name: TGI

Ask: Reported TGI for COc1cc2c(c(OC)c1OC)-c1ccc(O)c(=O)cc1[C@@H](NC(C)=O)CC2 : what is it?
Reply: > 100 µM

Ask: Quick one: COC(=O)c1cc(C)ccc1/C=C1\Cc2c(C)cc(C)cc2C1=O
Reply: 44.5 µM

Ask: Quick one: CCOC(=O)Nc1nc2cc(OCC)ccc2s1
Reply: > 100 µM

###

# Test system: SN12C renal
# Assay notes: NCI tumour cell line growth inhibition, 48 h
Property name: TGI

Ask: Reported TGI for COc1cc(/C=C2\CN(C(=O)CCN3CCC(=NO)CC3)C/C(=C\c3cc(OC)c(OC)c(OC)c3)C2=O)cc(OC)c1OC : what is it?
Reply: 0.695 µM
